# credit: patent US20240376207A1

Biological target: T1, his-tagged human PVRIG (h-PVRIG-his) recombinant protein (human, UniProt Q6DKI7 41-171, limits assumed)
T1 construct: bought from Acrobiosystems; also called Human PVRIG-his; human PVRIG recombinant protein; not shown: his tag
T1 sequence (looked up): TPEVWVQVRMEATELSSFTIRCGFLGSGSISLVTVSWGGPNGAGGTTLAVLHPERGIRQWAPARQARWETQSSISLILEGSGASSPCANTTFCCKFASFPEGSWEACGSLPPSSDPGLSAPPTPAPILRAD
Experiment: BLI (Fortebio), antibody on Protein A sensor, 1:1 fit
Would you mind telling me the reported koff of each entry?
Numbers only, in s⁻¹.

INSERT INTO results (binder, measurement_label, unit_abbreviation, reading) VALUES
  ('humanized anti-PVRIG antibody 151H7 (antibody, human IgG4 S228P, F234A L235A, V domains shown) VH: HVQLVESGGGLVQPGGSLRLSCVASASGFTYRPYCMAWFRQAPGKEREAVAGIDIFGGTTYADSVKGRFTASRDNAGFSLYLQMNSLRAEDTAVYYCAAGDSPDGRCPPLGQGLNYWGQGTMVTVSS', 'koff', 's⁻¹', 0.000188);

Shift focus to the following entry.
For the binder humanized anti-PVRIG antibody 39H2 (antibody, human IgG4 S228P, F234A L235A, V domains shown) VH: EVQLVESGGGLVQPGGSLRLSCAASGFTSRTDCMGWFRQAPGKGLEGVAHIDSDGIPRYVESVKGRFTISRDNAKNSLYLQMNSLRAEDTAVYYCVVGFKFGDYCAPNDWGQGTMVTVSS , report koff.
0.000124
